Below: a set of entries, each annotated with reported GI50.
# System: A549
# METHOD: NCI tumour cell line growth inhibition, 48 h
Activity calls are given as the source filed them. Cut-off read from the data, not from the text of the source: active = GI50 up to about 1.1 µM and inactive = higher.
READOUT_KIND: GI50

{"COMPOUND": "Cc1ccc(/N=N/c2c(C)c(C#N)c(=S)n(C3OC(CO)C(O)C(O)C3O)c2-c2ccccc2)cc1 (stereo unspecified)", "RECORDED_MEASUREMENT": "32 µM (inactive)"}
{"COMPOUND": "CCOC(=O)c1nc(C)oc1C(F)(F)F", "RECORDED_MEASUREMENT": "> 100 µM (inactive)"}
{"COMPOUND": "CCC1(CC)C(=O)N(C(=O)c2ccccc2)N(C(=O)c2ccc(Cl)cc2)C1=O", "RECORDED_MEASUREMENT": "> 75 µM (inactive)"}
{"COMPOUND": "O=c1c(S(=O)(=O)Oc2ccccc2)coc2cc(F)ccc12", "RECORDED_MEASUREMENT": "> 100 µM (inactive)"}
{"COMPOUND": "[O-][S+](CC1(O)CCCCC1)c1ccccc1 (stereo unspecified)", "RECORDED_MEASUREMENT": "> 100 µM (inactive)"}
{"COMPOUND": "CCOC(=O)C(C)(C(=O)OCC)/C(Cl)=C\\Cl", "RECORDED_MEASUREMENT": "33.7 µM (inactive)"}

----------
Some compounds, each annotated with its measured GI50.
# Test system: A498
# METHOD: NCI tumour cell line growth inhibition, 48 h
The source made the active and inactive calls. Cut-off read from the data, not from the text of the source: active = GI50 up to about 1.1 µM and inactive = higher.
READOUT_KIND: GI50

{"COMPOUND": "Cc1ccc(S(=O)(=O)Nc2nc3ccccc3c(=O)n2C2CCCCC2)cc1", "RECORDED_MEASUREMENT": "> 100 µM (inactive)"}
{"COMPOUND": "CCOC(=O)c1nc2cc(C(F)(F)F)ccc2nc1Nc1ccc(C(=O)NC(C(=O)OCC)C(=O)OCC)cc1", "RECORDED_MEASUREMENT": "25.5 µM (inactive)"}
{"COMPOUND": "COc1nc(/C=N/NC(N)=S)nc(OC)n1", "RECORDED_MEASUREMENT": "33.7 µM (inactive)"}
{"COMPOUND": "CCOC(=O)c1nc(C)oc1C(F)(F)F", "RECORDED_MEASUREMENT": "> 100 µM (inactive)"}
{"COMPOUND": "C[C@H]1C2Cc3cc(N)ccc3[C@@]1(C)CCN2CCc1ccccc1", "RECORDED_MEASUREMENT": "29.4 µM (inactive)"}
{"COMPOUND": "CCOC(=O)C1=C(C)N(Cc2ccc(Cl)cc2Cl)C2(O)C(OC)CC(=O)C3C(=O)N(c4ccccc4)C(=O)C132 (stereo unspecified)", "RECORDED_MEASUREMENT": "10.8 µM (inactive)"}
{"COMPOUND": "COC(=O)c1cc(C#N)[nH]c1-c1cccs1", "RECORDED_MEASUREMENT": "37.8 µM (inactive)"}
{"COMPOUND": "CC1(C)OCC(CO)(CO)CO1", "RECORDED_MEASUREMENT": "14 µM (inactive)"}
{"COMPOUND": "CCCCOC1CC2(c3ccc(OC)cc3)C(=O)c3ccccc3N2O1 (stereo unspecified)", "RECORDED_MEASUREMENT": "> 10 µM (inactive)"}
{"COMPOUND": "COC(=O)c1cc2c(cc1Cl)Sc1nnc(Nc3ccc(C)cc3)n1S2(=O)=O", "RECORDED_MEASUREMENT": "15.2 µM (inactive)"}
{"COMPOUND": "COc1cc(CCN)c(OC)c(OC)c1", "RECORDED_MEASUREMENT": "> 100 µM (inactive)"}
